B1: Connector enhancer of kinase suppressor of ras 2, residues 9 to 71; numbered along this chain, Q8WXI2 (parent)
chain: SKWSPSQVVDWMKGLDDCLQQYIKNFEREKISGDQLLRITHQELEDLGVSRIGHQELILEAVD

- Variants of: B1
- method_summary: abundance fitness (aPCA) (normalised: wild type 0, dead -1); higher = more abundant; growth selection in yeast, the domain comes from the species named
- run_parameters: Homo sapiens
measured_parameter: abundance fitness
Lab note: jot the number down without any unit.

R51H    0.018
L57I    -0.242
E27H    -0.376
E45I    -0.076
G14E    -0.225

Query: # get_value(readout='abundance fitness', item= F26A )
Reply: -0.824

Query: What about this variant? D16A
Reply: -0.408

Query: What about this variant? L47W
Reply: -0.622

Query: What about this variant? L36P
Reply: -0.928

Query: What about this variant? I31L
Reply: -0.26

Query: What about this variant? L19S
Reply: -0.642

Query: What about this variant? G48L
Reply: -0.991

Query: What about this variant? I52N
Reply: -0.139

Query: What about this variant? D16G
Reply: -0.466

Origin of the recorded values: the Human Domainome abundance scans (Beltran et al. 2025)
